Assay: H9c2 cardiomyocyte survival under peroxide injury – uHTS, H9c2 cells, ATPLite luminescence, primary screen (AID 588492)
Condition info: H9c2 cardiomyocytes, 2 h, at 20 µM, active compounds read high
Among all 360,000 compounds or so, about 2,300 (0.64%) were called active. The sample as a whole holds a higher share of actives than the screen did.
Label satisfied when protection from H2O2 cell death is at or above 20%; otherwise label not satisfied.

{"Compound": "Cc1cc(C(=O)OCC(=O)NCc2ccco2)c(C)n1-c1ccccc1", "Group label": "not satisfied"}
{"Compound": "CCOc1ccc(NC(=O)[C@H](C)NC(=O)C2CC(=O)N(c3ccc(OC)cc3)C2)cc1 (stereo partly drawn)", "Group label": "not satisfied"}
{"Compound": "CCCC(=O)NC(Nc1ccccc1OC)C(Cl)(Cl)Cl (stereo not drawn)", "Group label": "not satisfied"}
{"Compound": "COc1ccc2oc(C(=O)N(CC(C)C)C3CCS(=O)(=O)C3)c(C)c2c1 (stereo not drawn)", "Group label": "not satisfied"}
{"Compound": "CCOC(=O)c1sc(NC(=O)C2CSC3(C)CCC(=O)N23)nc1C (stereo not drawn)", "Group label": "not satisfied"}
{"Compound": "CCOc1cc(-c2cc(-c3ccc(NC(C)=O)cc3)nc(N)c2C#N)ccc1O", "Group label": "satisfied"}

Exercise: Identify whether the reported protection from H2O2 cell death of the following compound is 20% or greater: `COc1cccc(-c2ccc(SCC(=O)N3CCN(c4ccccc4)CC3)nn2)c1`
Solution: satisfied

Exercise: Identify whether the reported protection from H2O2 cell death of the following compound is 20% or greater: `O=C(COC(=O)c1cccc(Cl)c1)NC1CCCCCCC1`
Solution: not satisfied

Exercise: Identify whether the reported protection from H2O2 cell death of the following compound is 20% or greater: `O=C(CN(c1ccc2c(c1)OCCO2)S(=O)(=O)c1ccccc1)Nc1ccc2c(c1)OCO2`
Solution: satisfied

Exercise: Identify whether the reported protection from H2O2 cell death of the following compound is 20% or greater: `Cc1nccn1-c1ccc(NC(=O)[C@H]2O[C@@H](n3cnc4c(N)ncnc43)[C@H](O)[C@@H]2O)cc1`
Solution: not satisfied

Exercise: Identify whether the reported protection from H2O2 cell death of the following compound is 20% or greater: `O=C(CCCCO)c1ccc(O)c(Cl)c1`
Solution: not satisfied

Exercise: Identify whether the reported protection from H2O2 cell death of the following compound is 20% or greater: `CCOc1cc2c(Cl)ncnc2c(OCC)c1OCC`
Solution: not satisfied

Exercise: Identify whether the reported protection from H2O2 cell death of the following compound is 20% or greater: `CCNC(=O)c1sccc1-n1cccc1`
Solution: not satisfied

Exercise: Identify whether the reported protection from H2O2 cell death of the following compound is 20% or greater: `Cc1cc(C)c2nc(N3CCC(C(=O)NCCN4CCOCC4)CC3)sc2c1`
Solution: not satisfied

Exercise: Identify whether the reported protection from H2O2 cell death of the following compound is 20% or greater: CC(=O)NC(c1cccs1)c1cc(Br)c2cccnc2c1O (stereo not drawn)
Solution: satisfied

====

Assay: H9c2 cardiomyocyte survival under peroxide injury – uHTS, H9c2 cells, ATPLite luminescence, primary screen (AID 588492)
Condition info: H9c2 cardiomyocytes, 2 h, at 20 µM
Screen size: about 360,000 compounds; about 2,300 (0.64%) were called active.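 Rule for the calls: active = compounds giving at least 50% protection of heart cells from peroxide-induced death in the single-dose screen, raw or plate-pattern-corrected value; inactive = the rest.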 The sample holds actives, similar compounds and a random draw of the others, so the mix is not that of the screen.
Result category, one only: active, inactive

Exercise: Test call, this compound: `O=C(OCC(=O)N1CCN(c2ccccc2)CC1)c1ccc([N+](=O)[O-])s1`
Solution: inactive

Exercise: Test call, this compound: `O=C(COC(=O)Cn1cnc2ccccc21)Nc1cccc2c1C(=O)c1ccccc1C2=O`
Solution: active

Exercise: Test call, this compound: `O=C(COC(=O)c1cccc(Br)c1)Nc1cccc2c1C(=O)c1ccccc1C2=O`
Solution: inactive

Exercise: Test call, this compound: `CC(C)c1nnc(NC(=O)CCC(=O)N2CCN(c3cccc(Cl)c3)CC2)s1`
Solution: inactive

Exercise: Test call, this compound: `O=C(CSCc1c(Cl)cccc1Cl)NN1C(=O)c2ccccc2C1=O`
Solution: inactive

Exercise: Test call, this compound: `O=C1CCC/C=C/C[C@@H](CC(=O)N(CCO)Cc2ccccc2)C(=O)NC[C@H](c2ccccc2)O1`
Solution: inactive
